// data source = patent US9006437B2

Test: Absorption/emission maxima of dyes in pH 7.4 PBS
Assay type: physicochemical
λem (nm) (in pH 7.4 PBS) values by entry
Respond with the bare value in nm.

These solved cases illustrate the format of a correct answer.
| compound | reading |
| --- | --- |
| N=c1ccc2c(-c3ccccc3C(=O)O)c3ccc(N)c(S(=O)(=O)NCCOCCOCCOCCOCCOCCOCCOCCOCCC(=O)ON4C(=O)CCC4=O)c3oc-2c1S(=O)(=O)O [compound 4] | 516 |
| N=c1ccc2c(-c3ccccc3C(=O)O)c3ccc(N)c(S(=O)(=O)NCCOCCOCCOCCOCCOCCOCCOCCN)c3oc-2c1S(=O)(=O)O [compound 3] | 516 |
| N=c1ccc2c(-c3ccccc3C(=O)O)c3ccc(N)c(S(=O)(=O)NCCCCCC(=O)ON4C(=O)CCC4=O)c3oc-2c1 [compound 1] | 516 |

Now consider a different compound.
Task: Look up λem (nm) (in pH 7.4 PBS): COCCOCCNC(=O)c1ccc(-c2c3ccc(=N)c(S(=O)(=O)O)c-3oc3c(S(=O)(=O)NCCOCCOCCOCCOCCC(=O)ON4C(=O)CCC4=O)c(N)ccc23)c(C(=O)O)c1 [compound 5]
Result: 516
